System: Androgen receptor (Homo sapiens, UniProt P10275) | Read-out: Kd | Origin: multiple publications

>  <Given Smiles>
CCNC(=O)C[C@@H]1N=C(c2ccc(OCC3CN(c4ccc(C(=O)N[C@H]5CC[C@H](Oc6ccc(C#N)c(Cl)c6)CC5)nn4)C3)cc2)c2c(sc(C)c2C)-n2c(C)nnc21

>  <Kd>
< 50 nM

$$$$
>  <Given Smiles>
Cc1sc2c(c1C)C(c1ccc(Cl)cc1)=N[C@@H](CC(=O)NCCCCOCCOC1CCN(c3ncc(C(=O)N[C@H]4C(C)(C)[C@H](Oc5ccc(C#N)c(Cl)c5)C4(C)C)cn3)CC1)c1nnc(C)n1-2

>  <Kd>
< 50 nM

$$$$

**Query** Request - read-out Kd | tested on Androgen receptor (Homo sapiens, UniProt P10275) | compound CCS(=O)(=O)Cc1ccc(Oc2cccc(OCCOC3CCN(c4cnc(C(=O)N[C@H]5CC[C@H](Oc6ccc(C#N)c(Cl)c6)CC5)cn4)CC3)c2F)c(-c2cn(C)c(=O)c3[nH]ccc23)c1
**Result** 50 to 500 nM
